B1: glmS ribozyme (parent)
chain: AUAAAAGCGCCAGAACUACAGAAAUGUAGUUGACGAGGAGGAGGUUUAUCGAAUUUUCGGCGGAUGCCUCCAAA

Variants of: B1
Assay: kcat; higher = faster cleavage; RNA array
Conditions: with glucosamine-6-phosphate
This sample holds only a part of the variants without activity.
propertyMeasured: kcat (s⁻¹)
Please give a number only; it is taken to be in s⁻¹.

Query block: Item U69C C71U : provide kcat
Result block: 0.000591

Query block: Item U65C : provide kcat
Result block: 0.000875

Query block: Item A6G A39G : provide kcat
Result block: 0.00207

Query block: Item A53C U55C : provide kcat
Result block: 0.0014

Query block: Item U30G G40C : provide kcat
Result block: 0.000669

Query block: Item G29C C71G : provide kcat
Result block: 8.64e-05

Query block: Item G13U A64C : provide kcat
Result block: 1.02e-05

Query block: Item U56C G60A : provide kcat
Result block: 1.14e-05

Query block: Item A14G A42U : provide kcat
Result block: 0.000931

Query block: Item G38U U49A C67A : provide kcat
Result block: 1.26e-05

Query block: Item G13U A53G C68G : provide kcat
Result block: 4.16e-05

Query block: Item C16G U30G : provide kcat
Result block: 0.000352

Query block: Item U31G G59A : provide kcat
Result block: 0.000131

Query block: Item C58U C70A : provide kcat
Result block: 2.29e-05

Query block: Item A6G U54G : provide kcat
Result block: 0.000277

Query block: Item A12U A64C : provide kcat
Result block: 0.000692

Query block: Item C11A A52G C58G : provide kcat
Result block: 1.09e-05

Query block: Item A14U U46G : provide kcat
Result block: 0.0012

Query block: Item C11U U31G : provide kcat
Result block: 0.00667

Query block: Item U46G U54A : provide kcat
Result block: 0.00945

Query block: Item G13A G41U : provide kcat
Result block: 5.73e-05

Query block: Item C67U C68U : provide kcat
Result block: 0.000115

Query block: Item A39G A48C : provide kcat
Result block: 0.000798

Query block: Item G13A G41A : provide kcat
Result block: 6.21e-05

Query block: Item U49A C71U : provide kcat
Result block: 1.56e-05

Query block: Item U30G U31A : provide kcat
Result block: 0.0147

Query block: Item G37C U54A U69G : provide kcat
Result block: 3.07e-05

Query block: Item A12U U57C : provide kcat
Result block: 0.00174

Query block: Item G43A C67G : provide kcat
Result block: 0.00156

Query block: Item C11U A15C : provide kcat
Result block: 0.000738

Query block: Item G29A A42G : provide kcat
Result block: 0.00587

Query block: Item G59U C61A C67A : provide kcat
Result block: 1.63e-05

Query block: Item G40A G41C : provide kcat
Result block: 0.000139

Query block: Item A12G G32C C68G : provide kcat
Result block: 1.4e-05

Query block: Item G37C U47G : provide kcat
Result block: 1.63e-05

Query block: Item A12C U46G : provide kcat
Result block: 0.00332

Query block: Item G32A U49A U54G G59A C67U : provide kcat
Result block: 1.76e-05

Query block: Item U30G A52U : provide kcat
Result block: 6.83e-05

Query block: Item A6C U56G : provide kcat
Result block: 4.98e-05

Query block: Item A12C A15C : provide kcat
Result block: 0.00209

Query block: Item G37C U69A : provide kcat
Result block: 1.84e-05

Query block: Item U30A U46A : provide kcat
Result block: 0.00042

Query block: Item C16A G29A : provide kcat
Result block: 0.00235

Query block: Item A48U G66U : provide kcat
Result block: 2.75e-05

Query block: Item G37A C70A : provide kcat
Result block: 1.38e-05

Query block: Item A15C U56A : provide kcat
Result block: 0.00477

Query block: Item G29A C67U C71G : provide kcat
Result block: 4.81e-05

Query block: Item C10U G59U : provide kcat
Result block: 2.6e-05

Query block: Item U45A A48C : provide kcat
Result block: 0.000559

Query block: Item U55A G66A : provide kcat
Result block: 0.0303

Query block: Item C10A G51U G63C : provide kcat
Result block: 1.02e-05

Query block: Item C50A C68A : provide kcat
Result block: 3.68e-05

Query block: Item G9U C34G C58G C68U : provide kcat
Result block: 4.14e-05

Query block: Item A15G G29U : provide kcat
Result block: 0.00177

Query block: Item C34G C70G : provide kcat
Result block: 1.99e-05

Query block: Item A6C A39G : provide kcat
Result block: 6.38e-05

Query block: Item C16U C61A : provide kcat
Result block: 1.08e-05

Query block: Item A39U G41A : provide kcat
Result block: 0.00029

Query block: Item G7U A53C C58A U69G C70U : provide kcat
Result block: 0.000741

Query block: Item A39C G44A : provide kcat
Result block: 3.56e-05

Query block: Item U54A C70U : provide kcat
Result block: 0.00432

Query block: Item A39C C67G : provide kcat
Result block: 0.000391

Query block: Item A33C U65A : provide kcat
Result block: 4.76e-05

Query block: Item A15G U56A : provide kcat
Result block: 0.00941

Query block: Item A12U U54G : provide kcat
Result block: 0.0434

Query block: Item A36G G63U C70A : provide kcat
Result block: 1.84e-05

Query block: Item A12G C16U : provide kcat
Result block: 0.00221

Query block: Item A6G G43C C68G : provide kcat
Result block: 0.000785

Query block: Item C10U A39U : provide kcat
Result block: 1.59e-05

Query block: Item G41C U45G G66C : provide kcat
Result block: 4.62e-05

Query block: Item G32A U65G : provide kcat
Result block: 0.000643

Query block: Item G29C U45G : provide kcat
Result block: 0.000453

Query block: Item U55G : provide kcat
Result block: 0.0523

Query block: Item U69A C70G : provide kcat
Result block: 1.72e-05

Query block: Item C58A G66A : provide kcat
Result block: 0.000322

Query block: Item G40C C70U C71G : provide kcat
Result block: 0.00208

Query block: Item C11U U55G : provide kcat
Result block: 0.0019

Query block: Item A14C G29U : provide kcat
Result block: 0.000857
